Entries and their MIC (μg/mL) P. aeruginosa
Test system: Pseudomonas aeruginosa
assay_name: MIC against Gram-negative bacteria: Pseudomonas aeruginosa
Format: cell-based
recorded_conditions: P. aeruginosa; 10 h cultivation at 37° C.; 5×10^5 CFU/mL

{"substance": "PRT793 (YGEACQQICSCQNGADCDSVTGKCTCAPGFKGIDCS; listed as Homo sapiens)", "measurement_units": "µg/mL", "MIC (μg/mL) P. aeruginosa": 50}
{"substance": "PRT147 (DINECEINNGGCSVAPPVECVNTPGSSHCQACPPGYQGDGRVCT; listed as Homo sapiens)", "measurement_units": "µg/mL", "MIC (μg/mL) P. aeruginosa": 12.5}
{"substance": "PRT783 (WGPNCSLPCYCKNGASCSPDDGICECAPGFRGTTCQ; listed as Homo sapiens)", "measurement_units": "µg/mL", "MIC (μg/mL) P. aeruginosa": 50}

---

Tested on: E. coli BL21
assay_name: MIC against Gram-negative bacteria: E. coli BL21
Assay type: cell-based
recorded_conditions: E. coli BL21; 10 h cultivation at 37° C.; 5×10^5 CFU/mL
Experimental: 1. Gram-negative bacteria, such as E. coli BL21, Pseudomonas aeruginosa, Klebsiella pneumonia, Enterobacter cloacae, Aeromonas hydrophila, Citrobacter diversus, Moraxella catarrhalis, Proteus mirabilis, Proteus vulgaris, Serratia marcescens, etc were streaked on solid LB medium and cultured respectively. Then, typical clones were picked, inoculated into common liquid LB medium respectively, and cultured at 37° C. with shaking at 185 rpm until the McFarland specific turbidity was 0.5. […]

{"substance": "PRT808 (YGPNCSSICSCNNGGTCSPVDGSCTCKEGWQGLDCT; listed as Homo sapiens)", "MIC (μg/mL) E. coli BL21 [µg/mL]": 50}
{"substance": "PRT262 (CLIHHGGCHIHAECIPTGPQQVSCSCREGYSGDGIRTC; listed as Homo sapiens)", "MIC (μg/mL) E. coli BL21 [µg/mL]": 25}
{"substance": "PRT865 (CSCHPVGSAVLPANSVTFCDPSNGDCPCKPGVAGRRCDRCMVGYWGFGDYGCRP; listed as Homo sapiens)", "MIC (μg/mL) E. coli BL21 [µg/mL]": 12.5}
{"substance": "PRT180 (DLDDCAGRACANGGTCVEGGGAHRCSCALGFGGRDCR; listed as Homo sapiens)", "MIC (μg/mL) E. coli BL21 [µg/mL]": 12.5}
{"substance": "PRT239 (SAGPCTPNPCHNGGTCEISEAYRGDTFIGYVCKCPRGFNGIHCQ; listed as Homo sapiens)", "MIC (μg/mL) E. coli BL21 [µg/mL]": 12.5}
{"substance": "PRT195 (MGYNCNATTKCKGKGICNNFGNCQCFPGHRPPDCK; listed as Homo sapiens)", "MIC (μg/mL) E. coli BL21 [µg/mL]": 12.5}
{"substance": "PRT237 (DINECTPPYSVYCGFNAVCYNVEGSFYCQCVPGYRLHSGNEQFSNSNENTCQ; listed as Homo sapiens)", "MIC (μg/mL) E. coli BL21 [µg/mL]": 12.5}
{"substance": "PRT258 (CSHPDRGGCSENAECVPGSLGTHHCTCHKGWSGDGRVC; listed as Homo sapiens)", "MIC (μg/mL) E. coli BL21 [µg/mL]": 12.5}

---

Tested on: Proteus mirabilis
assay_name: MIC against Gram-negative bacteria: Proteus mirabilis
Assay type: cell-based
recorded_conditions: 10 h cultivation at 37° C., 5×10^5 CFU/mL, two-fold serial dilution
Entries and their MIC P. mirabilis
metric: MIC P. mirabilis

{"substance": "PRT1105 (EIDECWSQPCLNGATCQDALGAYFCDCAPGFLGDHCE; listed as Homo sapiens)", "value_measured": "50 µg/mL"}
{"substance": "PRT1062 (LQGNCSRLGCQHHCVPTLDGPTCYCNSSFQLQADGKTCK; listed as Homo sapiens)", "value_measured": "12.5 µg/mL"}
{"substance": "PRT1139 (RYNLCDLLHNPCRNNSTCLALVDANQHCICREEFEGKNCE; listed as Homo sapiens)", "value_measured": "50 µg/mL"}
{"substance": "PRT1131 (RMPGCQHGTCHQPWQCICHSGWAGKFCD; listed as Homo sapiens)", "value_measured": "12.5 µg/mL"}
{"substance": "PRT1180 (DIDYCEPNPCQNGAQCYNRASDYFCKCPEDYEGKNCS; listed as Homo sapiens)", "value_measured": "25 µg/mL"}
{"substance": "PRT1167 (NINDCESNPCRNGGTCIDGVNSYKCICSDGWEGAYCE; listed as Homo sapiens)", "value_measured": "50 µg/mL"}
{"substance": "PRT1047 (SNTCTCKNGGTCLPENGNCVCAPGFRGPSCQ; listed as Homo sapiens)", "value_measured": "12.5 µg/mL"}
{"substance": "PRT1127 (KDGPCVINGSPCQHGGTCVDDEGRASHASCLCPPGFSGNFCE; listed as Homo sapiens)", "value_measured": "25 µg/mL"}
{"substance": "PRT1157 (DVSEFSLVPCQNGTDCIKISNDVMCICSPIFTDLLCK; listed as Homo sapiens)", "value_measured": "12.5 µg/mL"}
{"substance": "PRT1138 (EINECDSDPCMNGGLCHESTIPGQFVCLCPPLYTGQFCH; listed as Homo sapiens)", "value_measured": "12.5 µg/mL"}
{"substance": "PRT1059 (SDSECPLSHDGYCLHDGVCMYIEALDKYACNCVVGYIGERCQ; listed as Homo sapiens)", "value_measured": "12.5 µg/mL"}
{"substance": "PRT1191 (AEHACTSNPCANGGSCHEVPSGFECHCPSGWSGPTCA; listed as Homo sapiens)", "value_measured": "25 µg/mL"}
{"substance": "PRT1134 (NVDDCLMRPCANGATCLDGINRFSCLCPEGFAGRFCT; listed as Homo sapiens)", "value_measured": "12.5 µg/mL"}
{"substance": "PRT1053 (QLVSCPRNVSECSHDCVLTSEGPLCFCPEGSVLERDGKTCS; listed as Homo sapiens)", "value_measured": "100 µg/mL"}
{"substance": "PRT1064 (INECLSRKLSGCSQDCEDLKIGFKCRCRPGFRLKDDGRTCA; listed as Homo sapiens)", "value_measured": "50 µg/mL"}
{"substance": "PRT1177 (DANECEAKPCVNAKSCKNLIASYYCDCLPGWMGQNCD; listed as Homo sapiens)", "value_measured": "50 µg/mL"}
{"substance": "PRT1193 (DANECEGKPCLNAFSCKNLIGGYYCDCIPGWKGINCH; listed as Homo sapiens)", "value_measured": "50 µg/mL"}
{"substance": "PRT1141 (EINECSSEPCKNNGTCVDLTNRFFCNCEPEYHGPFCE; listed as Homo sapiens)", "value_measured": "25 µg/mL"}
{"substance": "PRT1159 (TTDDQENECQHEAVCKDEINRPRCSCSLSYIGRLCV; listed as Homo sapiens)", "value_measured": "12.5 µg/mL"}
{"substance": "PRT1150 (HVPWCAHHLCRNNGTCISDNENLFCECPRLYSGK; listed as Homo sapiens)", "value_measured": "25 µg/mL"}
{"substance": "PRT1148 (NINECSSSPCLHGADCEDHINGYVCKCQPGWSGHHCE; listed as Homo sapiens)", "value_measured": "12.5 µg/mL"}
{"substance": "PRT1090 (NNTRCLSNSCQNNSTCKDFSKDNDCSCSDTANNLDKDCD; listed as Homo sapiens)", "value_measured": "25 µg/mL"}
{"substance": "PRT1058 (DIDECQLGEHSCGENASCTNTEGGYTCMCAGRLSEPGLICP; listed as Homo sapiens)", "value_measured": "12.5 µg/mL"}
{"substance": "PRT1106 (NTDECASQPCLHGGLCVDGENRYSCNCTGSGFTGTHCE; listed as Homo sapiens)", "value_measured": "25 µg/mL"}
{"substance": "PRT1099 (PSTVCGNEKTNLTCYNGGNCTEFQTELKCMCRPGFTGEWCE; listed as Homo sapiens)", "value_measured": "25 µg/mL"}
{"substance": "PRT1098 (DIDNCQSHQCANGATCISHTNGYSCLCFGNFTGKFCR; listed as Homo sapiens)", "value_measured": "12.5 µg/mL"}
{"substance": "PRT1110 (RREQCRPLPCVHGGSCVDLWTHFRCDCARPHRGPTCA; listed as Homo sapiens)", "value_measured": "25 µg/mL"}
{"substance": "PRT1187 (NTNDCNPLPCYNGGICVDGVNWFRCECAPGFAGPDCR; listed as Homo sapiens)", "value_measured": "25 µg/mL"}
{"substance": "PRT1068 (DINECLRFGTCSQLCNNTKGGHLCSCARNFMKTHNTCK; listed as Homo sapiens)", "value_measured": "25 µg/mL"}
